# Experiment notes: stimulators of nuclear beta-catenin in C2C12, primary screen, imaging, WNT3A-conditioned medium, mouse C2C12, NPC library (AID 1117326); note: reference of the scale not given here
# Condition: at 10 µM, stronger effect = higher value
In this section we review reported nuclear beta-catenin stimulation values for a set of molecules.
Readout name: nuclear beta-catenin stimulation (%)

> print(dat)
                                   molecule                      readout.name  display.unit  quantitative.readout
1  CCCCCOc1ccc(C2SC(=O)NC2=O)cc1OCC (stereo unspecified)  nuclear beta-catenin stimulation             %                  -0.1
2  CCCCOC(=O)CC(CC(=O)OCCCC)(OC(C)=O)C(=O)OCCCC  nuclear beta-catenin stimulation             %                  -0.3
3          COc1cc2[nH]c(=O)[nH]c(=O)c2cc1OC  nuclear beta-catenin stimulation             %                   0.1
4                                  O=S(O)CO  nuclear beta-catenin stimulation             %                   2.1
5  CC(C)(C)CC(=O)OCC(=O)[C@@]1(O)CC[C@H]2[C@@H]3CCC4=CC(=O)C=C[C@]4(C)[C@H]3[C@@H](O)C[C@@]21C  nuclear beta-catenin stimulation             %                     3
6                   O=C(CN1CCNCC1)NC1CCCCC1  nuclear beta-catenin stimulation             %                  -0.7

====

# Experiment notes: stimulators of nuclear beta-catenin in C2C12, primary screen, imaging, WNT3A-conditioned medium, mouse C2C12, NPC library (AID 1117326); note: reference of the scale not given here
# Condition: stimulation, at 2 µM, stronger effect = higher value
Readout name: nuclear beta-catenin stimulation (%)

> print(dat)
                                   compound  quantitative.readout
1       CCS(=O)(=O)CCn1c([N+](=O)[O-])cnc1C                   0.6
2  CC(N=C(NC#N)Nc1ccncc1)C(C)(C)C (configuration not stated)                  -1.6
3                     O=c1[nH]cnc2[nH]ncc12                     1
4  O=C(OCC(COC(=O)c1cccnc1)(COC(=O)c1cccnc1)COC(=O)c1cccnc1)c1cccnc1                  -0.3
5                    Nc1nc(N)c(-c2ccccc2)s1                   2.2
6                            O=C(O)c1cccnc1                  -0.5
7                          O=C(CS)Nc1ccccc1                  -0.2

====

In this section we review reported inhibition of viability values for a set of compounds.
# Experiment notes: HCT116 colon cancer cell growth inhibition, primary screen, CellTiter-Glo luminescence, NPC library (AID 1117342)
# Condition: at 20 µM (top of the series)
Readout name: inhibition of viability (%)

> print(dat)
                               input.smiles             readout.name  quantitative.readout
1  CON=C(C(=O)N[C@@H]1C(=O)N2C(C(=O)O)=C(C[N+]3(C)CCCC3)CS[C@H]12)c1csc(N)n1  inhibition of viability                 -21.3
2  CC(=O)O[C@@H]1C(=O)O[C@@H]2[C@H]1OC(=O)[C@@H]2OC(C)=O  inhibition of viability                  22.9
3                               CCCCCC(N)=O  inhibition of viability                   2.8
4                        CCCCCCCCCCCCCCNCCO  inhibition of viability                  32.6
5  CCCC(=O)OC[C@@H](OC(=O)CCC)[C@@H](OC(=O)CCC)[C@H](Cn1c2nc(=O)[nH]c(=O)c-2nc2cc(C)c(C)cc21)OC(=O)CCC  inhibition of viability                  11.7
